- target: ScCyk3
- experimentalProtocol: SPOT peptide array binding signal intensity (averaged, normalized) (arbitrary units (background-subtracted, floor 0; scale differs between SH3 domains)); higher = stronger binding of the SH3 domain to the peptide
Please use criterion met whenever SPOT peptide array binding signal intensity is not below 40, and criterion not met whenever it is.

Consider the worked cases shown below.
PPPPPPPPPPPLPQS; criterion not met
TSFKGRPKPPKTLKH; criterion not met
KMSRSPPRPPSLKII; criterion not met
TKRKRPARLIFYDSK; criterion met
VTHRLRISIPGITGR; criterion met
NNFYRPLLRSVLVLL; criterion met
NLDRSKISLPDFDDE; criterion not met
KRRTSLFPWLHKPGI; criterion met

QUERY: Evaluate SGVRLPAPPPPPRRG : SPOT peptide array binding signal intensity at minimum 40?
RESULT: criterion not met

QUERY: Determine whether measured SPOT peptide array binding signal intensity meets or exceeds 40 for HRRRRVFSIPSLKSI
RESULT: criterion met

QUERY: Determine whether this binder has SPOT peptide array binding signal intensity no lower than 40: HGKRRAPLLLAKLDV
RESULT: criterion met
